Entries and their CC50 at 72 h values follow.
assay-explanation: Cytotoxicity against african green monkey Vero cells after 72 hrs by MTT assay
Type: cell-based
reported-conditions: chlorocebus sabaeus

- Fc1ccccc1[C@@H]1C[C@@H]2Cc3ccccc3N1O2 (relative stereo): > 300 µM
- CC1CS(=O)(=O)CCN1/N=C/c1ccc([N+](=O)[O-])o1 (stereo unspecified) [NIFURTIMOX]: 61.4 µM
- O[C@@H]1Cc2ccccc2N[C@H](c2ccccc2Cl)C1 (relative stereo): > 300 µM
- Clc1ccc2c(c1)C[C@H]1C[C@@H](c3ccccc3)N2O1 (relative stereo): > 300 µM
- O[C@@H]1Cc2cc(Cl)ccc2N[C@H](c2ccccc2)C1 (relative stereo): 191 µM

Param item = Fc1ccc2c(c1)C[C@H]1C[C@@H](c3ccccc3)N2O1 (relative stereo) ; retrieve measured CC50 at 72 h.
> 300 µM

Give the measured CC50 at 72 h of O[C@@H]1Cc2cc(Cl)ccc2N[C@H](c2ccc(Br)cc2)C1 (relative stereo) .
57.7 µM

Tell me the measured CC50 at 72 h of Clc1ccc([C@@H]2C[C@@H]3Cc4ccccc4N2O3)cc1 (relative stereo) , please.
> 300 µM

Fill in the blank: the reported CC50 at 72 h of Clc1cccc([C@@H]2C[C@@H]3Cc4ccccc4N2O3)c1 (relative stereo) is ____.
> 300 µM

Consider the molecule Cc1ccc([C@@H]2C[C@@H]3Cc4cc(C)ccc4N2O3)cc1 (relative stereo) and give its measured CC50 at 72 h.
208 µM

What does the data say about its CC50 at 72 h? Entry: Fc1ccc2c(c1)C[C@H]1C[C@@H](c3ccc(Cl)cc3)N2O1 (relative stereo)
> 300 µM

Which value of CC50 at 72 h has been reported for Fc1cccc(Cl)c1[C@@H]1C[C@@H]2Cc3ccccc3N1O2 (relative stereo) in the records?
> 300 µM

Given Cc1ccc2c(c1)C[C@@H](O)C[C@@H](c1ccccc1Cl)N2 (relative stereo) , state its recorded CC50 at 72 h.
82.4 µM

Fill in the blank: the reported CC50 at 72 h of Clc1cccc(Cl)c1[C@@H]1C[C@@H]2Cc3ccccc3N1O2 (relative stereo) is ____.
> 300 µM

Please report the recorded CC50 at 72 h for Clc1ccc2c(c1)C[C@H]1C[C@@H](c3c(Cl)cccc3Cl)N2O1 (relative stereo) .
57 µM

Look at this molecule and give its reported CC50 at 72 h. O[C@@H]1Cc2cc(F)ccc2N[C@H](c2ccccc2)C1 (relative stereo)
> 300 µM

FYI, the data here is from ChEMBL document CHEMBL1177650.
